Reference for the values: patent US9725439B2

experiment: Pharmacokinetics test on rats; assay type: in vivo; conditions: rat, po; male rats, gavage, single dose 5 mg/kg, plasma
Endpoint Name: Cmax (ng/mL)

[a] C=CC(=O)N1CCC(Nc2cc3c(Nc4ccc(F)c(Cl)c4)ncnc3cc2OC)CC1
[b] C=CC(=O)N1CC(Nc2cc3c(Nc4ccc(F)c(Cl)c4)ncnc3cc2OC)C1
Please state the entry with greater Cmax among a and b . Refer to your chosen entry by its label in the reply.
a

---

assay: Pharmacokinetics test on rats; assay type: in vivo; details: rat, po; male rats, gavage, single dose 5 mg/kg, plasma
Endpoint Name: AUC(0-inf) (ng·h/mL)

[I] C=CC(=O)N1CCC(Nc2cc3c(Nc4ccc(F)c(Cl)c4)ncnc3cc2OC)CC1 [Example 2]
[II] C=CC(=O)N1CC(Nc2cc3c(Nc4ccc(F)c(Cl)c4)ncnc3cc2OC)C1 [Example 1]
Min AUC(0-inf)? I | II Refer to your chosen entry by its label in the reply.
II
(II: 1350 ng·h/mL, I: 11000 ng·h/mL)
